Biological target: T1, OC43 S1B+C (S1B and S1C domains of the hCoV-OC43 spike glycoprotein) (human coronavirus OC43, UniProt P36334 321-675)
T1 construct: also called recombinant OC43 S1B+C; recombinant OC43 protein; source: Expi293F, transfected, purified from supernatant (Ni-NTA IMAC, SEC); not shown: His6, C-terminal, cleaved
T1 sequence (looked up): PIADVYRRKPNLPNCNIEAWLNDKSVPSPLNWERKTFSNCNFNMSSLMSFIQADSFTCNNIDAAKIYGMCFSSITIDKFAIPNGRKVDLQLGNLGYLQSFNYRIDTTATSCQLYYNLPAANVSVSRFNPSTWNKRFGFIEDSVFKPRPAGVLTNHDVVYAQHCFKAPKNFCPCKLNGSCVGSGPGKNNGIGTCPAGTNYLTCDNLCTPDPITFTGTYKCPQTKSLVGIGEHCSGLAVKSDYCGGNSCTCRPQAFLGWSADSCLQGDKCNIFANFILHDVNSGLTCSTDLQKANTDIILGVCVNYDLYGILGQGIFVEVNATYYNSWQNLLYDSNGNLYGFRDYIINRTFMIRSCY
Test: BLI
Conditions: both partners purified
pKd: −log10 of the molar value.
Cut-off 8 on pKd, inclusive. At or above means Yes; below means No.

WNb 286 (VHH) VHH: QVQLQESGGGLVQAGGSLRLSCAASGRTFSSYAMGWFHQAPGKEREFVASISWSGGTTYYADSVKGRFTISRDNAKNTVYLQMNSLKPEDTAVYYCAAAVDYGLGLYRVGEYDSWGQGTQVTVSS ... No

Q. Item WNb 294 (VHH) VHH: QVQLQESGGGLVQAGGSLRLSCAASGRTFSSYAMGWFRQAPGKEREFVAAISWSGGTTYYGDSVKGRFTISRDNAKNTVYLQMNSLKPEDTAVYYCAAQGDGGSWFPEGLADFGSWGQGTQVTVSS with pKd of 8 or above?
A. No

Q. Field entry: WNb 284 (VHH) VHH: QVQLQESGGGLVQAGGPLRLSCAASGRTFSDYFMGWFRQAPGMEREFVASISWSGGTTYYADSVKGRFTISRDNAKNTVYLQMNSLKPEDTAVYYCAAAIDYGLGLTVEYEYDYWGQGTQVTVSS
A. Yes

Q. Again, but for WNb 285 (VHH) VHH: QVQLQESGGGLVQAGGSLRLSCAASGRTFSDYAMGWFRQAPGKEREFVAAISWSGGTTYYADSVKGRFTISRDNAKNTVYLQMNSLTPEDTAVYYCAADYDYGWGRVRVSEYDYWGQGTQVTVSS
A. Yes

Q. What do you get for WNb 297 (VHH) VHH: QVQLQESGGGSVQAGGSLRLSCAASGRTFSDYAMGWFRQAPGKEREFVASISWSGGTTYYADSVKGRFTISRDNAKNTVYLQMNSLKPEDTAVYYCAADTDYGMGLITVPDFGSWGQGTQVTVSS ?
A. No
